Source of measurements: patent EP0490590A1

testedSystem: CCK receptor (brain, cerebral cortex) (Cavia porcellus)
Construct: Cerebral cortex was dissected and used as a receptor source; from tissue; host or cells: guinea pig cerebral cortex membranes
Sequence (H0VZC5 entry or part of it): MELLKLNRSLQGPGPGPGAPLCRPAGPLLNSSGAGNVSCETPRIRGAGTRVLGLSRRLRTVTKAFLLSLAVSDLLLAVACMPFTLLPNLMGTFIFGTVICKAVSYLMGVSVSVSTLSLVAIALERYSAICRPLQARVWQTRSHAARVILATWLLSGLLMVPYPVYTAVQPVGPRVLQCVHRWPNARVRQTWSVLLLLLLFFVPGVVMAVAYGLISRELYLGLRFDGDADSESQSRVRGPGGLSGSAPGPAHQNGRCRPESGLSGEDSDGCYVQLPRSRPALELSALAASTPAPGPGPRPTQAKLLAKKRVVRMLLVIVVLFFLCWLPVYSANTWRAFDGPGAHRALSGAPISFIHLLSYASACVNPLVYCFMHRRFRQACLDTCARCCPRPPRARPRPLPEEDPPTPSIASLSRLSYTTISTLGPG
assayComment: CCK Receptor Binding (Brain), 125I-CCK-33
experimentalConditions: inhibition of 125I-CCK-33 binding, guinea pig cerebral cortex membranes, 25°C, 2 hours
measurementLabel: IC50 (µM)
Note: unit µM is implicit; provide only the numeric part.

Report IC50 for CN1C(=O)C(NC(=O)c2cc3cc(O)ccc3[nH]2)N=C(c2ccccc2)c2ccccc21 (stereo not shown) [Example 15] please.
0.91

---

testedSystem: CCK receptor (pancreas) (Rattus norvegicus)
Construct: The whole pancreas was dissected free of fat tissue and was homogenized; from tissue; host or cells: rat whole pancreas membrane homogenate
Sequence (P30551 1-444): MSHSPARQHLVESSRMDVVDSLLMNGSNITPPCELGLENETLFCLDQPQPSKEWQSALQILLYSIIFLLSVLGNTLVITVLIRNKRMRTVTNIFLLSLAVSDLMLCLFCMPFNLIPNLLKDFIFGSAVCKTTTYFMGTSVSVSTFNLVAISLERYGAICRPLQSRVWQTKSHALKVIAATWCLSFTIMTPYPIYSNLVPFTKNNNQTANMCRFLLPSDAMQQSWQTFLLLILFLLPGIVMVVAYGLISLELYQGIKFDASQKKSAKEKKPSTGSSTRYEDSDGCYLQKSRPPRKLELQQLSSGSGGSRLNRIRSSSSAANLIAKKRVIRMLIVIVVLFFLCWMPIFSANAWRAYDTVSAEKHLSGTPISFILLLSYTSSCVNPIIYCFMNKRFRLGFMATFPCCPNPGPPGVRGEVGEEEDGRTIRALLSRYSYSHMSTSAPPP
assayComment: CCK Receptor Binding (Pancreas), 125I-CCK-33
experimentalConditions: inhibition of 125I-CCK-33 binding, rat pancreas membranes, 37°C, 30 minutes
measurementLabel: IC50 (µM)
Note: unit µM is implicit; provide only the numeric part.

Report IC50 for CN1C(=O)C(NC(=O)c2cc3cc(O)ccc3[nH]2)N=C(c2ccccc2)c2ccccc21 (stereo not shown) please.
0.0033
